# Test system: h-TERT-RPE1 TP53−/− parental cells
# protocol.text: Nuclear count cell proliferation assay, parental (wild type) h-TERT-RPE1 TP53−/− cells
# Assay type: cell-based
# condition.summary: hTERT-RPE1, h-TERT-RPE1 TP53−/− parental (Wt), around 6 population doublings, banded, read-out: RPE Wt GI50
Structures can show the parent of a compound that is named as a salt.
value.type: GI50

# compound, target.system, GI50
records = [
    ("Cc1ccc(O)c(C)c1NC(=O)c1cnc(Nc2ccn(CC(=O)N3CCCC3)n2)s1", "h-TERT-RPE1 TP53−/− parental cells", "500 to 3000 nM"),
]

Incoming: Recorded GI50 for Cc1ccc(O)c(C)c1NC(=O)c1cnc(Nc2ccn(CC(=O)N3CCN(CC4CC4)CC3)n2)s1 with h-TERT-RPE1 TP53−/− parental cells, please?
Outgoing: 3000 to 10000 nM

Incoming: Here is the next compound: Cc1ccc(O)c(C)c1NC(=O)c1cnc(NCCCNC(=O)OC(C)(C)C)s1
Outgoing: > 10000 nM

Incoming: Now the same for Cc1ccc(O)c(C)c1NC(=O)c1cnc(Nc2ccn(CC(=O)OC(C)C)n2)s1
Outgoing: 500 to 3000 nM

Incoming: Another: Cc1ccc(O)c(C)c1NC(=O)c1cnc(Nc2ccn(CC(=O)N3CCNC(C)(C)C3)n2)s1
Outgoing: > 10000 nM

Incoming: What do you have for Cc1ccc(O)c(C)c1NC(=O)c1cnc(Nc2ccn(CC(=O)N3CCC(C)(C)CC3)n2)s1 ?
Outgoing: 500 to 3000 nM

Incoming: What do we get for Cc1ccc(O)c(C)c1NC(=O)c1cnc(Nc2ccn([C@@H]3CCN(Cc4ccccc4)C3)n2)s1 ?
Outgoing: 3000 to 10000 nM

Incoming: Also Cc1ccc(O)c(C)c1NC(=O)c1cnc(Nc2ccn(CC(=O)N3CCN(C(=O)OC(C)(C)C)C(C)(C)C3)n2)s1 ?
Outgoing: 3000 to 10000 nM

Incoming: // next record CCN(CC)C(=O)Cn1ccc(Nc2ncc(C(=O)Nc3c(C)ccc(O)c3C)s2)n1
Outgoing: 500 to 3000 nM

Incoming: Same question, Cc1ccc(O)c(C)c1NC(=O)c1cnc(Nc2ccn(CC(=O)NC3CCNCC3)n2)s1 this time
Outgoing: 3000 to 10000 nM

Incoming: And what about the compound Cc1ccc(O)c(C)c1NC(=O)c1cnc(Nc2ccn(CC(=O)N3CC4CCC(C3)N4)n2)s1 ?
Outgoing: > 10000 nM

Incoming: Cc1ccc(O)c(C)c1NC(=O)c1cnc(NC2CC2)s1 ?
Outgoing: 3000 to 10000 nM

Incoming: Now consider CCOC(=O)c1cn(C)nc1Nc1ncc(C(=O)Nc2c(C)ccc(O)c2C)s1 and answer again.
Outgoing: > 10000 nM

Incoming: Ok, now Cc1ccc(O)c(C)c1NC(=O)c1cnc(Nc2ccn(CC(=O)NCCN(C)C)n2)s1 [BAA-160, (hydrochloride)]
Outgoing: 3000 to 10000 nM

Incoming: Next: Cc1ccc(O)c(C)c1NC(=O)c1cnc(Nc2ccn(CC(=O)N3CC(F)(F)C(F)(F)C3)n2)s1
Outgoing: 500 to 3000 nM

Incoming: Now give it for Cc1ccc(O)c(C)c1NC(=O)c1cnc(Nc2ccn(CC(=O)NC3CCN(C(=O)OC(C)(C)C)CC3)n2)s1 too.
Outgoing: > 10000 nM

Incoming: Next compound: Cc1ccc(O)c(C)c1NC(=O)c1cnc(Nc2ccn(CC(=O)NC3CC3)n2)s1
Outgoing: 3000 to 10000 nM
